- Measured Target: beta-catenin/TCF4 engagement (Homo sapiens)
- Construct: expressed in transfected cells; host or cells: HEK293
- Protocol Text: Nano-BRET target engagement assay (B-cat-Halo & TCF4-Luc in HEK293 cells)
- Format: cell-based
- Setup Conditions: absolute IC50; read-out: NanoBRET Abs IC50
Assay Metric: IC50

Q: Item under review: CNCCCCN(C)C(=O)CC[C@@H]1NC(=O)[C@H](Cc2cccc(C(=O)O)c2)NC(=O)[C@H](CC(=O)O)NC(=O)C2(CCCC=CCCCOC(=O)N3CC[C@@](C(=O)N[C@@H](Cc4ccsc4)C(=O)N[C@@H](Cc4csc5ccccc45)C(=O)N[C@@H](C)C(N)=O)(C3)NC(=O)[C@H](C(C)C)NC(=O)[C@H](Cc3ccccc3)NC(=O)[C@H](C)NC1=O)CCCC=CC[C@]1(CCCN1C(C)=O)C(=O)N[C@@H](CC(=O)O)C(=O)N[C@@H](CC(C)(C)C)C(=O)N2 (stereo partly shown) . Reported IC50?
A: > 20 µM

====

Overview of reported IC50 across a group of compounds:
- Measured Target: full-length beta-Catenin (Uniprot ID P35222) (Homo sapiens, UniProt P35222)
- Construct: 10 nM full-length beta-Catenin (Uniprot ID P35222)
- Sequence (P35222 1-781): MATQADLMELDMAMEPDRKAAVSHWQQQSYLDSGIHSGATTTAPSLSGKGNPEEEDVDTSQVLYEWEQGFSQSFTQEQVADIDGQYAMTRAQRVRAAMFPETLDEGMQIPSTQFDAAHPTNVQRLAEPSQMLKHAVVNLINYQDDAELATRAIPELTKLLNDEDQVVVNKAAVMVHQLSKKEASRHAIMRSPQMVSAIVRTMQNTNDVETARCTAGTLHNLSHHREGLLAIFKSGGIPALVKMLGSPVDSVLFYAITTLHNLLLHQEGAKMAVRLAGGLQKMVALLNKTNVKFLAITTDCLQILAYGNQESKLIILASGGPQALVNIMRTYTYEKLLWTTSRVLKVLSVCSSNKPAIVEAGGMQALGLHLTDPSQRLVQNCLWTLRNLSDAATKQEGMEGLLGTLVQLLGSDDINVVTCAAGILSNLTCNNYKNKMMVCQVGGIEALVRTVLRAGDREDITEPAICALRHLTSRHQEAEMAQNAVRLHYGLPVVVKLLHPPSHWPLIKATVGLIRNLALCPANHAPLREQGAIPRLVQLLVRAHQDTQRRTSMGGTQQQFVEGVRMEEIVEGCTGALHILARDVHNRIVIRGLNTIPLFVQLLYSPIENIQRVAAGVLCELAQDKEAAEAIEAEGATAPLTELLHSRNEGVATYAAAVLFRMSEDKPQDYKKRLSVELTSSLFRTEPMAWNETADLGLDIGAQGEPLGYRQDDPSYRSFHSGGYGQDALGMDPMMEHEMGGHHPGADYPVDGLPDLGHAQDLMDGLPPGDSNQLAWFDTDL
- Protocol Text: Fluorescence polarization IC50 (beta-catenin / 5FAM-TCF4 10-53 competition)
- Assay type: binding
- Setup Conditions: fluorescence polarization; read-out: beta-Catenin FP IC50
Provide the reading as a plain figure in nM.

CCN(CC(=O)O)C[C@@H]1NC(=O)[C@H](CC(=O)O)NC(=O)C2(CCCC=CCCCCCC[C@@](C)(C(=O)N[C@@H](Cc3ccsc3)C(=O)N[C@@H](Cc3csc4ccccc34)C(=O)N[C@@H](CCC(N)=O)C(N)=O)NC(=O)[C@H](CC(N)=O)NC(=O)[C@H](Cc3ccccc3)NC(=O)[C@H](C)NC(=O)[C@H](C)NC1=O)CCCC=CC[C@]1(CCCN1C(C)=O)C(=O)N[C@@H](CC(=O)O)C(=O)N[C@@H](CC(C)(C)C)C(=O)N2 (some centres unmarked) [I-1627]	57

Next compound, please.
Q: Report IC50 for CC(=O)N1CCC[C@]12CCCCCCC1(CCCCCCOC(=O)N3CC(C(=O)N[C@@H](Cc4ccsc4)C(=O)N[C@@H](Cc4csc5ccccc45)C(=O)N[C@@H](CCC(N)=O)C(N)=O)(C3)NC(=O)[C@H](CC(C)C)NC(=O)[C@H](Cc3ccccc3)NC(=O)[C@H](C)NC(=O)[C@H](C)NC(=O)[C@H](CC(=O)O)NC(=O)[C@H](CC(=O)O)NC1=O)NC(=O)[C@H](CC(C)(C)C)NC(=O)[C@H](CC(=O)O)NC2=O (some centres unmarked) please.
A: 1110

====

Parameter IC50: see the listing below.
- Measured Target: full-length beta-Catenin (Uniprot ID P35222) (Homo sapiens)
- Construct: 10 nM full-length beta-Catenin (Uniprot ID P35222)
- Protocol Text: Fluorescence polarization IC50 (beta-catenin / 5FAM-TCF4 10-53 competition)
- Format: binding
- Setup Conditions: fluorescence polarization; read-out: beta-Catenin FP IC50
A number alone suffices; assume nM.

CC(=O)N1CCC[C@]12CC=CCCCC1(CCCC=CCCCOC(=O)N3CC[C@@](C(=O)N[C@@H](Cc4ccsc4)C(=O)N[C@@H](Cc4csc5ccccc45)C(=O)N[C@@H](CCC(N)=O)C(N)=O)(C3)NC(=O)[C@H](CC(N)=O)NC(=O)[C@H](Cc3ccccc3)NC(=O)[C@H](C)NC(=O)[C@H](C)NC(=O)[C@H](Cc3c[nH]c4ccccc34)NC(=O)[C@H](CC(=O)O)NC1=O)NC(=O)[C@H](CC(C)(C)C)NC(=O)[C@H](CC(=O)O)NC2=O (some centres unmarked) [I-1788]	58

API: the following record is the query input.
Q: Could you share which IC50 value was measured for CC[C@H](C)[C@@H]1NC(=O)[C@H](CC(=O)O)NC(=O)[C@]2(CC=CCCCC3(CCCC=CCCCCCC[C@@](C)(C(=O)N[C@@H](Cc4ccsc4)C(=O)N[C@@H](Cc4csc5ccccc45)C(=O)N[C@@H](CCC(N)=O)C(N)=O)NC(=O)[C@H](CC(N)=O)NC(=O)[C@H](Cc4ccccc4)NC(=O)[C@H](C)NC(=O)[C@H](C)NC(=O)[C@H](CCC(=O)O)NC(=O)[C@H](CC(=O)O)NC3=O)NC1=O)CCCN2C(C)=O (some centres unmarked) [I-521] ?
A: 23

====

- Protocol Text: Solubility in PBS
- Format: physicochemical
Assay Metric: Solubility (µM)
Answer with a number only, understood to be in µM.

CC(=O)N1CCC[C@]12CC=CCCCC1(CCCC=CCCCCCC[C@@](C)(C(=O)N[C@@H](Cc3ccccc3)C(=O)N[C@@H](Cc3c[nH]c4ccccc34)C(=O)N[C@@H](CCC(N)=O)C(N)=O)NC(=O)[C@H](C(C)C)NC(=O)[C@H](C)NC(=O)[C@H](C)NC(=O)[C@H](C)NC(=O)[C@H](CC(=O)O)NC(=O)[C@H](CC(=O)O)NC1=O)NC(=O)[C@H](C)NC(=O)[C@H](CC(=O)O)NC2=O (stereo partly drawn) [I-354]	50

Q: Find the recorded Solubility belonging to CC(=O)N1CCC[C@]12CC=CCCCC1(CCCC=CCCCCCC[C@@](C)(C(=O)N[C@@H](Cc3ccsc3)C(=O)N[C@@H](Cc3csc4ccccc34)C(=O)N[C@@H](Cc3c[nH]cn3)C(N)=O)NC(=O)[C@H](CC(N)=O)NC(=O)[C@H](Cc3ccccc3)NC(=O)[C@H](C)NC(=O)[C@H](C)NC(=O)[C@H](CCC(=O)O)NC(=O)[C@H](CC(=O)O)NC1=O)NC(=O)[C@H](C)NC(=O)[C@H](CC(=O)O)NC2=O (stereo partly drawn) [I-515] and report it.
A: 46

Q: Entry CC(=O)N1CCC[C@]12CC=CCCCC1(CCCC=CCCCCCC[C@@](C)(C(=O)N[C@@H](Cc3ccsc3)C(=O)N[C@@H](Cc3csc4ccccc34)C(=O)N[C@@H](CCC(N)=O)C(N)=O)NC(=O)[C@H](CC(N)=O)NC(=O)[C@H](Cc3ccccc3)NC(=O)[C@H](C)NC(=O)[C@H](C)NC(=O)[C@H](CCC(=O)O)NC(=O)[C@H](CC(=O)O)NC1=O)NC(=O)[C@H](CC(C)(C)C)NC(=O)[C@H](CC(=O)O)NC2=O (stereo partly drawn) [I-683] : reported Solubility = ?
A: 37

====

- Measured Target: full-length beta-Catenin (Uniprot ID P35222) (Homo sapiens, UniProt P35222)
- Construct: 10 nM full-length beta-Catenin (Uniprot ID P35222)
- Sequence (P35222 1-781): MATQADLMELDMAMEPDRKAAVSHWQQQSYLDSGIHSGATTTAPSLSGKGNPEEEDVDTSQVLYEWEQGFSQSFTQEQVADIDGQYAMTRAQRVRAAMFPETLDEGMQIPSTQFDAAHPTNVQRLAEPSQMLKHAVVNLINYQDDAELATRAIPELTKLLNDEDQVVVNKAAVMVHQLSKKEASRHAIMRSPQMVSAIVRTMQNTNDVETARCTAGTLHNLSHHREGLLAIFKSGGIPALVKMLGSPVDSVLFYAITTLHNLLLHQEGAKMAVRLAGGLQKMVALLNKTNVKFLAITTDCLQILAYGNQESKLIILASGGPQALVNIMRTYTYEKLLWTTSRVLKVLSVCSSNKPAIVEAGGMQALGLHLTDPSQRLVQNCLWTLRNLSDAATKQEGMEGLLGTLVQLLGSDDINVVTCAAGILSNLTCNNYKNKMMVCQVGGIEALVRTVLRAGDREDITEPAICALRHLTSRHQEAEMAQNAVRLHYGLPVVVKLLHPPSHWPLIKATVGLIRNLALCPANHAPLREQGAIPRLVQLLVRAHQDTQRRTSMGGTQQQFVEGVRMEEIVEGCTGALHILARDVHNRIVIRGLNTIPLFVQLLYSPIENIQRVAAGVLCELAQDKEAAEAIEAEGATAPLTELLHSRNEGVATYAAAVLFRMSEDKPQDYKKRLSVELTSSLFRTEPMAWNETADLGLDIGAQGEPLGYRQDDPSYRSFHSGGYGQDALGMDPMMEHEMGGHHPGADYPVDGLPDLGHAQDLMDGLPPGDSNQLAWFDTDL
- Protocol Text: Fluorescence polarization IC50 (beta-catenin / 5FAM-TCF4 10-53 competition)
- Type: binding
- Setup Conditions: fluorescence polarization; read-out: beta-Catenin FP IC50
Assay Metric: IC50 (nM)
Give your result in nM as a bare value.

CC(=O)N1CCC[C@]12CC=CCCCC1(CCCC=CCCCOC(=O)N3CC[C@@](C(=O)N[C@@H](Cc4ccccc4)C(=O)N[C@@H](Cc4csc5ccccc45)C(=O)N[C@@H](Cc4c[nH]cn4)C(N)=O)(C3)NC(=O)[C@H](CC(N)=O)NC(=O)[C@H](Cc3ccccc3)NC(=O)[C@H](C)NC(=O)[C@H](C)NC(=O)[C@H](CCC(=O)O)NC(=O)[C@H](CC(=O)O)NC1=O)NC(=O)[C@H](CC(C)(C)C)NC(=O)[C@H](CC(=O)O)NC2=O (some centres unmarked) [I-693]	12

Continue with the next compound.
Q: Record request: IC50 value, item CC(=O)N1CCC[C@]12CC=CCCCC1(CCCC=CCCCOC(=O)N3CC[C@@](C(=O)N[C@@H](Cc4ccsc4)C(=O)N[C@@H](Cc4csc5ccccc45)C(=O)N[C@@H](CCC(N)=O)C(N)=O)(C3)NC(=O)[C@H](CC(N)=O)NC(=O)[C@H](Cc3ccccc3)NC(=O)[C@H](C)NC(=O)C(C)(C)NC(=O)[C@H]([C@@H](C)O)NC(=O)[C@H](CC(N)=O)NC1=O)NC(=O)[C@H](CC(C)(C)C)NC(=O)[C@H](CC(=O)O)NC2=O (some centres unmarked) [I-2338]
A: 63
